Let's look at some variants and their measured self-cleavage.
B1: HDV Ribozyme (parent)
chain: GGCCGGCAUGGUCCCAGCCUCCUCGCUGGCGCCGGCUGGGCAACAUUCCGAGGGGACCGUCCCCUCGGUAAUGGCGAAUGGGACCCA

variants of: B1; experiment: self-cleavage, relative activity (ratio to wild type); higher = more cleavage; co-transcriptional
Write no unit; give the number alone.

{"columns": ["MUTATION_CODE", "PARAMETER_MEASURED", "ASSAY_RESULT"],
 "data": [
  ["U65C C84U", "self-cleavage", 0.703]
]}

[Q] Identify measured self-cleavage corresponding to C13U U69G
[A] 0.7

[Q] Identify measured self-cleavage corresponding to G11A G31C
[A] 0.0997
